Origin of the recorded values: patent US12552800B2

- SYSTEM_UNDER_TEST: PD brain-derived a-syn aggregates (Homo sapiens)
- Construct: from tissue; host or cells: human PD donor brain, sarkosyl-insoluble 100,000 x g pellet
- TEST_SUMMARY: Micro-radiobinding competition assay against Example-1 [^3H-1] (Table 8)
- Assay type: binding
- EXPERIMENTAL_CONDITIONS: competition over Example-1 [^3H-1]
MEASURED_ATTRIBUTE: pKi
Numbers only, as −log10 of the molar value.

>  <COMPOUND>
O=C1c2cn(-c3ccc(N4CC[C@@H](F)C4)nc3)nc2CN1c1cnccn1 [Example 7]

>  <SYSTEM_UNDER_TEST>
PD brain-derived a-syn aggregates (Homo sapiens)

>  <MEASURED_ATTRIBUTE>
pKi

>  <MEASURED>
8.30

$$$$
>  <COMPOUND>
O=C1c2cn(-c3ccc(N4CC[C@@H](F)C4)nc3)nc2CN1c1ccc(O)nc1 [Example 81]

>  <SYSTEM_UNDER_TEST>
PD brain-derived a-syn aggregates (Homo sapiens)

>  <MEASURED_ATTRIBUTE>
pKi

>  <MEASURED>
6.93

$$$$
>  <COMPOUND>
Cc1ccnc(N2Cc3nn(-c4ccc(N5CC[C@@H](F)C5)nc4)cc3C2=O)c1 [Example 80]

>  <SYSTEM_UNDER_TEST>
PD brain-derived a-syn aggregates (Homo sapiens)

>  <MEASURED_ATTRIBUTE>
pKi

>  <MEASURED>
7.25

$$$$
>  <COMPOUND>
O=C1c2cn(-c3ccc(N4CCCC4)nc3)nc2CN1c1cncc(F)n1 [Example 139]

>  <SYSTEM_UNDER_TEST>
PD brain-derived a-syn aggregates (Homo sapiens)

>  <MEASURED_ATTRIBUTE>
pKi

>  <MEASURED>
8.15

$$$$
>  <COMPOUND>
O=C1c2cn(-c3ccc(N4CC[C@@H](F)C4)nc3)nc2CN1c1ccnnc1 [Example 25]

>  <SYSTEM_UNDER_TEST>
PD brain-derived a-syn aggregates (Homo sapiens)

>  <MEASURED_ATTRIBUTE>
pKi

>  <MEASURED>
7.17

$$$$

Hi team, please reply with pKi for each item in this list.
1. O=C1c2cn(-c3ccc(N4CC[C@H](F)C4)nc3)nc2CN1c1ncccn1 [Example 18]
2. O=C1c2cn(-c3ccc(N4CCCC4)nc3)nc2CN1c1cncc(F)c1 [Example 99]
3. Cl.O=C1c2cn(-c3ccc(N4CC[C@H](F)C4)nc3)nc2CN1c1cnccn1 [Example 17]

Response:
1: 6.95; 2: 7.09; 3: 7.68

----------
Task for the reader: assign each of the following compounds its reported Competition at 100 nM (%).
- SYSTEM_UNDER_TEST: PD brain-derived a-syn aggregates (Homo sapiens, UniProt P37840)
- Construct: from tissue; host or cells: human PD donor brain, sarkosyl-insoluble 100,000 x g pellet
- TEST_SUMMARY: Micro-radiobinding competition assay against Example-1 [^3H-1] (Table 8)
- Assay type: binding
- EXPERIMENTAL_CONDITIONS: 100 nM non-radiolabelled example compound vs Example-1 [^3H-1] ligand; human PD brain-derived a-syn aggregates
Numbers only, in %.

>  <COMPOUND>
O=C1c2cn(-c3ccc(N4CC[C@H](F)C4)nc3)nc2CN1c1cccnc1O [Example 168]

>  <SYSTEM_UNDER_TEST>
PD brain-derived a-syn aggregates (Homo sapiens, UniProt P37840)

>  <Competition at 100 nM (%)>
30

$$$$
>  <COMPOUND>
O=C1c2cn(-c3ccc(N4CC[C@H](F)C4)nc3)nc2CN1c1ccns1 [Example 127]

>  <SYSTEM_UNDER_TEST>
PD brain-derived a-syn aggregates (Homo sapiens, UniProt P37840)

>  <Competition at 100 nM (%)>
71

$$$$
>  <COMPOUND>
COc1ccc(-n2cc3c(n2)CN(c2cncc(F)n2)C3=O)cn1 [Example 147]

>  <SYSTEM_UNDER_TEST>
PD brain-derived a-syn aggregates (Homo sapiens, UniProt P37840)

>  <Competition at 100 nM (%)>
72

$$$$
>  <COMPOUND>
O=C1c2cn(-c3ccc(N4CC[C@@H](F)C4)cn3)nc2CN1c1cccnc1 [Example 66]

>  <SYSTEM_UNDER_TEST>
PD brain-derived a-syn aggregates (Homo sapiens, UniProt P37840)

>  <Competition at 100 nM (%)>
72

$$$$
>  <COMPOUND>
O=C1c2cn(-c3ccc(N4CCCC4)nc3)nc2CN1c1ccc(F)cn1 [Example 115]

>  <SYSTEM_UNDER_TEST>
PD brain-derived a-syn aggregates (Homo sapiens, UniProt P37840)

>  <Competition at 100 nM (%)>
92

$$$$

Required: Competition at 100 nM (%), one value per compound below.
1. Cc1cncc(N2Cc3nn(-c4ccc(N5CC[C@@H](F)C5)nc4)cc3C2=O)c1 [Example 105]
2. Cc1ccnc(N2Cc3nn(-c4ccc(N5CC[C@H](F)C5)nc4)cc3C2=O)c1 [Example 82]

Response:
1: 57; 2: 84

Each compound below has a reported value. Please supply its Competition at 100 nM (%).
1. COc1ccccc1N1Cc2nn(-c3ccc(N4CC[C@@H](F)C4)nc3)cc2C1=O [Example 62]
2. Cc1cnccc1N1Cc2nn(-c3ccc(N4CC[C@H](F)C4)nc3)cc2C1=O [Example 123]
3. O=C1c2cn(-c3ccc(N4CC[C@H](F)C4)nc3)nc2CN1c1ccncc1O [Example 173]
4. COc1ccc(-n2cc3c(n2)CN(c2cccnc2)C3=O)cn1 [Example 130]

Response:
1: 8; 2: 32; 3: 12; 4: 74

Report Competition at 100 nM (%) for every entry below.
1. COc1ccc(N2Cc3nn(-c4ccc(N5CC[C@@H](F)C5)nc4)cc3C2=O)nc1 [Example 58]
2. N#Cc1cc(N2Cc3nn(-c4ccc(N5CC[C@@H](F)C5)nc4)cc3C2=O)ccn1 [Example 114]

Response:
[85, 92]

Fill in Competition at 100 nM (%) for each of the 5 compounds listed.
1. CN(C)c1ccc(-n2cc3c(n2)CN(c2cccnc2)C3=O)cn1 [Example 135]
2. O=C1c2cn(-c3ccc(N4CC[C@@H](F)C4)nc3)nc2CN1c1ccccc1 [Example 51]
3. COc1ccc(N2Cc3nn(-c4ccc(N5CC[C@H](F)C5)nc4)cc3C2=O)cn1 [Example 9]
4. Cn1cc(N2Cc3nn(-c4ccc(N5CC(F)C5)nc4)cc3C2=O)cn1 [Example 124]
5. O=C1c2cn(-c3ccc(N4CC[C@H](F)C4)nc3)nc2CN1c1ccc(O)cn1 [Example 165]

Response:
1: 67; 2: 80; 3: 69; 4: 61; 5: 88

----------
- SYSTEM_UNDER_TEST: PD brain-derived a-syn aggregates (Homo sapiens)
- Construct: from tissue; host or cells: human PD donor brain, sarkosyl-insoluble 100,000 x g pellet
- TEST_SUMMARY: Micro-radiobinding competition assay against Example-1 [^3H-1] (Table 8)
- Format: binding
- EXPERIMENTAL_CONDITIONS: 1 μM non-radiolabelled example compound vs Example-1 [^3H-1] ligand; human PD brain-derived a-syn aggregates
- Experimental: PD brain-derived a-syn aggregates were spotted onto microarray slides. The slides were incubated with the Example-1 [^3H-1] at 6 nM or 20 nM and the example compounds (non-radiolabelled) at 1 μM and 100 nM. In some cases, the non-radiolabelled example compounds were further assessed for a range of different concentrations, varying from 0.05 nM to 2 μM. […] Quantification of the signal was performed by using the Beamage image analysis software (ai4R). […]
MEASURED_ATTRIBUTE: Competition at 1 μM (%)
Answers are plain numbers, in %.

Reference set (3 entries):
>  <LINE_NOTATION>
N#Cc1cccc(N2Cc3nn(-c4ccc(N5CC[C@H](F)C5)nc4)cc3C2=O)n1

>  <Competition at 1 μM (%)>
38

$$$$
>  <LINE_NOTATION>
Cc1ccc(N2Cc3nn(-c4ccc(N5CC[C@H](F)C5)nc4)cc3C2=O)nc1

>  <Competition at 1 μM (%)>
105

$$$$
>  <LINE_NOTATION>
O=C1c2cn(-c3ccc(N4CC[C@@H](F)C4)nc3)nc2CN1c1ccccn1

>  <Competition at 1 μM (%)>
98

$$$$

Each compound below has a recorded value; state its Competition at 1 μM (%).
1. CC(C)Oc1ccc(-n2cc3c(n2)CN(c2cncc(F)n2)C3=O)cn1
2. O=C1c2cn(-c3ccc(N4CC[C@H](F)C4)nc3)nc2CN1c1ccccc1F
3. O=C1c2cn(-c3ccc(N4CC[C@H](F)C4)nc3)nc2CN1c1ccncc1
4. O=C1c2cn(-c3ccc(N4CC[C@H](F)C4)nc3)nc2CN1c1cnsc1
5. COc1cncc(N2Cc3nn(-c4ccc(N5CC[C@H](F)C5)nc4)cc3C2=O)c1

Response:
1. 54
2. 51
3. 88
4. 93
5. 76
